Examples of binders with documented OD450 follow.
Molecular target: T1, human MSLN-R1-his protein (human, UniProt Q13421 296-390)
T1 construct: also called hMSLN-R1-his; human MSLN-R1 protein; not shown: His tag
T1 chain: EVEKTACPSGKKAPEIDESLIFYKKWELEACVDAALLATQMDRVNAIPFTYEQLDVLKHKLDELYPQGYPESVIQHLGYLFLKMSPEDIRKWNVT
Assay: ELISA, coated antigen; antibody 0.1 nM
Provide a numeric answer; units are not to be included.

// known answers, use as guide
>>> value_measured("S009-F1.62.9 human-murine chimeric antibody (antibody, human IgG1, kappa, V domains shown, Chimeric IgG1/kappa) VH: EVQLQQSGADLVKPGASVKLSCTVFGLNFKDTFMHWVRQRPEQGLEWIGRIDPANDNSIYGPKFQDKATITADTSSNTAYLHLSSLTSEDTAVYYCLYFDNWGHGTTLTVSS VL: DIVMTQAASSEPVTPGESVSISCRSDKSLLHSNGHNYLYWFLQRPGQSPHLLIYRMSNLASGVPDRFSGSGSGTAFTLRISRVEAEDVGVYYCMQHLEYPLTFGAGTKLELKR")
0.04
>>> value_measured("S009-F1.35.24 human-murine chimeric antibody (antibody, human IgG1, kappa, V domains shown, Chimeric IgG1/kappa) VH: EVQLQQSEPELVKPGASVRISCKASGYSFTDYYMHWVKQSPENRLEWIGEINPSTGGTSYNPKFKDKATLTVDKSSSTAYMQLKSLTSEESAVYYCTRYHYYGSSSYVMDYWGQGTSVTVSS VL: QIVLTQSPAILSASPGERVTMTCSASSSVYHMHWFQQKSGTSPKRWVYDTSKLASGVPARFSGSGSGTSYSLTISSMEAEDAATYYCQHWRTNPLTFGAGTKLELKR")
0.04
>>> value_measured("S009-F1.56.1 human-murine chimeric antibody (antibody, human IgG1, kappa, V domains shown, Chimeric IgG1/kappa) VH: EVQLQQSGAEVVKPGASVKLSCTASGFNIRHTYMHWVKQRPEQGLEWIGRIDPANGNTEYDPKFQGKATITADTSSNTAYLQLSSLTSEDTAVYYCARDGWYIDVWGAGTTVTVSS VL: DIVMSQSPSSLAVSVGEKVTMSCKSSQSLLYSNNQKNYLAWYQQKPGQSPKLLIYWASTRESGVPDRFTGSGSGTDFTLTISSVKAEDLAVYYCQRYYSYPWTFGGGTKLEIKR")
0.04

OD450 for S009-F1.25.10 human-murine chimeric antibody (antibody, human IgG1, kappa, V domains shown, Chimeric IgG1/kappa) VH: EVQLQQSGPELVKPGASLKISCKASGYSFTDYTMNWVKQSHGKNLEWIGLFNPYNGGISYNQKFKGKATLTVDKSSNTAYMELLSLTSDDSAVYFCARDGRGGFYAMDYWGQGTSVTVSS VL: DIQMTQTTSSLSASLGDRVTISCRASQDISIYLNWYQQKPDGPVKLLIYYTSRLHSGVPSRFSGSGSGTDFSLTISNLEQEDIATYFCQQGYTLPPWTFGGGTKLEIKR ?
0.03
